System: NCI/ADR-RES ovarian
Assay: NCI tumour cell line growth inhibition, 48 h
*1 amine or outer side, *2 acyl side, *3 side chain or, on linkers, in order; H or OH if unused. Where a SMILES comes first, the peptide text is derived from it. Bridges are numbered along the chain shown (N, C = ends). [ ]: non-standard residue; d: D form. The star is where a group is joined. ξ: configuration not given here. X34 = O=C(C(CCCCNO[*:3])N[*:1])[*:2]; Fmoc = O=C(OCC1c2ccccc2-c2ccccc21)*; ξW = NC(Cc1c[nH]c2ccccc12)C(=O)O; ξP = O=C(O)C1CCCN1
Item-by-item account of TGI

Observe how each entry below is paired with its result.
[
  {
    "COMPOUND": "CC(C)OP(=O)(OC(C)C)c1c(Nc2ccccc2)n[nH]c1N",
    "TGI": "> 100 µM"
  },
  {
    "COMPOUND": "Cn1c(N2NC(=O)C(N=Nc3ccc(S(N)(=O)=O)cc3)C2=O)nc(-c2ccco2)c(C#N)c1=O (configuration not stated)",
    "TGI": "> 50 µM"
  },
  {
    "COMPOUND": "CCNCCNc1cc(-c2ccc(C(=O)OC)cc2)c(C#N)c2nc3ccccc3n12",
    "TGI": "> 100 µM"
  },
  {
    "COMPOUND": "O=C(O)c1cc2c(cc1CC(Cc1ccc3c(c1)CCC3)C(=O)O)CCC2 (configuration not stated)",
    "TGI": "> 100 µM"
  },
  {
    "COMPOUND": "CC1=C(O)C(=O)[C@@H]2O[C@@H]2C1=O",
    "TGI": "44.9 µM"
  },
  {
    "COMPOUND": "COC(=O)c1cc2c3ccccc3[nH]c2c2ncccc12",
    "TGI": "> 100 µM"
  },
  {
    "COMPOUND": "Cc1ccc2c(c1)C(=O)/C(=C/c1ncc([N+](=O)[O-])n1C)O2",
    "TGI": "7.04 µM"
  },
  {
    "COMPOUND": "Cc1ccc(S(=O)(=O)N(CCOc2ccc(/C(N)=N/Cl)cc2)CCOc2ccc(/C(N)=N\\Cl)cc2)cc1",
    "TGI": "> 100 µM"
  }
]

Log: NCI/ADR-RES ovarian, compound CCOc1cccc(/C=N/NC(=O)c2ccccc2Nc2ccnc(C(F)(F)F)c2)c1O , TGI = 26.3 µM

# CCN1c2ccccc2-n2c(C)nnc2-c2c1n[nH]c2-c1ccccc1 with NCI/ADR-RES ovarian: TGI is 73.1 µM

Measured TGI (NCI/ADR-RES ovarian), entry COc1cccc(-c2cc(=O)c3ccccc3o2)c1N : > 100 µM

// assay NCI/ADR-RES ovarian, entry S=C(N/N=C\C=N/NC(=S)N1CCCCC1)N1CCCCC1 , TGI value = > 22.3 µM

# O=C(O)CSc1nnc(COc2ccc(Cl)cc2)n1-c1ccccc1 with NCI/ADR-RES ovarian: TGI is > 100 µM

Let me check: C=C(CN1CCc2ccccc2C1)c1ccc(C(=O)Nc2cnccn2)cc1 , system NCI/ADR-RES ovarian, measured TGI is > 100 µM

TGI on NCI/ADR-RES ovarian for O=C(Nc1ccc(N2CCNCC2)cc1)c1[nH]ncc1Nc1cc(Oc2ccccc2)ncn1 is 39.2 µM

TGI of NC(=O)CNC(=O)C1CCCN1C(=O)C1CCCCNOC(=O)CC[C@@H](NC(=O)OCC2c3ccccc3-c3ccccc32)C(=O)NC(Cc2c[nH]c3ccccc23)C(=O)N1 (some centres not stated) (Fmoc-[dE][ξW][X34][ξP]G-NH2; ester 1-3) , assay on NCI/ADR-RES ovarian, is > 100 µM

----------
Known TGI of a selection of compounds
System: M14 melanoma
Assay: NCI tumour cell line growth inhibition, 48 h

Here are 5 compounds together with their reported answers.
[
  {
    "COMPOUND": "Cc1cc2c(cc1C)[n+](=O)c(C(=O)CC(=O)C(=O)Nc1c(C(C)C)cccc1C(C)C)c(C)n2[O-]",
    "TGI": "> 100 µM"
  },
  {
    "COMPOUND": "C[C@]12CC[C@@H]3c4ccc(O)cc4CC[C@H]3[C@@H]1C/C(=C\\c1ccncc1)C2=O",
    "TGI": "> 100 µM"
  },
  {
    "COMPOUND": "O=C1C(Cl)=C(N2CCN(C3=C(Cl)C(=O)c4ccccc4C3=O)CC2)C(=O)c2ccccc21",
    "TGI": "2.87 µM"
  },
  {
    "COMPOUND": "COC(=O)C(/C(=N/NC(N)=O)C(=O)Nc1ccc(C)cc1)c1nc2ccc([N+](=O)[O-])cc2[nH]c1=O (centres undefined)",
    "TGI": "> 100 µM"
  },
  {
    "COMPOUND": "O=C1C=CC(=Nc2ccc3c(c2)C(Br)c2ccccc2-3)O1 (centres undefined)",
    "TGI": "> 100 µM"
  }
]

For reference, reported TGI for O=C1/C(=C/c2ccc(Cl)cc2Cl)N=C(c2ccccc2)N1Cc1ccco1 stands at > 100 µM

In plain terms, O=C(CN1c2ccccc2Sc2ccccc21)N1CCNCC1 has a documented TGI of > 100 µM

----------
Tested on: A549 NSCLC
Test: NCI tumour cell line growth inhibition, 48 h; in the data active = GI50 below about 0.43 µM; inactive = the rest
Hi! Could you answer with just one of these? active, inactive

[
  {
    "COMPOUND": "Cc1ccc(CS/C(=C\\c2ccc([N+](=O)[O-])cc2)C(=O)c2ccc(F)cc2)cc1",
    "LABEL_CLASS": "inactive"
  },
  {
    "COMPOUND": "CC1OC(O[C@H]2C[C@@H](O)[C@]3(CO)[C@H]4[C@H](O)C[C@]5(C)[C@@H](C6=CC(=O)OC6)CC[C@]5(O)[C@@H]4CC[C@]3(O)C2)C(O)C(O)C1O (stereo not given in full)",
    "LABEL_CLASS": "inactive"
  },
  {
    "COMPOUND": "N#Cc1ccc(C#Cc2ccccc2C#CCCCCO)cc1",
    "LABEL_CLASS": "inactive"
  },
  {
    "COMPOUND": "COc1cccc(/C=N/NC(=O)c2ccccc2Nc2ccnc(C(F)(F)F)c2)c1O",
    "LABEL_CLASS": "inactive"
  },
  {
    "COMPOUND": "CN1CCN(Cc2ccc(NC(=O)c3cncc(C#Cc4cnc(N)c5ccc(C#N)cc45)c3)cc2C(F)(F)F)CC1",
    "LABEL_CLASS": "active"
  },
  {
    "COMPOUND": "CCCCC/C(C=C(C#N)C#N)=C/c1ccccc1",
    "LABEL_CLASS": "inactive"
  },
  {
    "COMPOUND": "O=c1oc2ccc(F)cc2c(=O)n1-c1ccc(F)cc1F",
    "LABEL_CLASS": "inactive"
  },
  {
    "COMPOUND": "O=C(NCCOCCOCCNc1cccc2c1C(=O)N(C1CCCNC1=O)C2=O)c1cc2c(o1)C(=O)c1ccccc1C2=O (stereo not given)",
    "LABEL_CLASS": "inactive"
  },
  {
    "COMPOUND": "C[C@]12CC[C@H](O)CC1=CC[C@@H]1[C@@H]2CC[C@]2(C)C(c3cccnc3)=CC[C@@H]12",
    "LABEL_CLASS": "inactive"
  }
]

API: the following record is the query input.
Qu. // param item: O=C(c1ccco1)c1nc2ccc(C(F)(F)F)cc2[n+]([O-])c1C(F)(F)F ; yields the recorded call
Ans. inactive

----------
Tested on: SF-268 CNS
Test: NCI tumour cell line growth inhibition, 48 h
Would you mind labelling by TGI? At or over 20 µM is YES, under is NO.

Example cases with answers are listed next.
[
  {
    "MOLECULE": "O=C1c2c(c3c4ccccc4n(CCCCCCBr)c3c3[nH]c4ccccc4c23)C(=O)N1O",
    "LABEL_CLASS": "NO"
  },
  {
    "MOLECULE": "COc1ccc(CNc2cc(OC)c(OC)c(OC)c2)cc1",
    "LABEL_CLASS": "YES"
  },
  {
    "MOLECULE": "O=C(Nc1ccc(N2CCNCC2)cc1)c1[nH]ncc1Nc1cc(Oc2ccccc2)ncn1",
    "LABEL_CLASS": "NO"
  },
  {
    "MOLECULE": "N#Cc1ccc(C#Cc2ccccc2C#CCCCCO)cc1",
    "LABEL_CLASS": "YES"
  },
  {
    "MOLECULE": "CCOc1cc(NC(C)=O)ccc1C(=O)NNC(=O)c1ccccc1OC(C)=O",
    "LABEL_CLASS": "YES"
  },
  {
    "MOLECULE": "COC(=O)C(/C(=N/NC(N)=O)C(=O)Nc1ccc(C)cc1)c1nc2ccc([N+](=O)[O-])cc2[nH]c1=O (centres undefined)",
    "LABEL_CLASS": "YES"
  },
  {
    "MOLECULE": "Cc1cc2c(cc1C)[n+](=O)c(C(=O)CC(=O)C(=O)Nc1c(C(C)C)cccc1C(C)C)c(C)n2[O-]",
    "LABEL_CLASS": "YES"
  },
  {
    "MOLECULE": "C/C(CCOC1CCCCO1)=C(\\C)[Si](C)(C)C (centres undefined)",
    "LABEL_CLASS": "YES"
  }
]

Qu. TGI >= 20 µM for CN1CCN(Cc2ccc(NC(=O)c3cncc(C#Cc4cnc(N)c5ccc(C#N)cc45)c3)cc2C(F)(F)F)CC1 ?
Ans. NO

Qu. Is TGI at least 20 µM? Consider O=C(CCCCCCCCC(=O)NN1C(=O)/C(=C\c2ccc(O)c(O)c2)SC1c1ccc(Cl)cc1)NN1C(=O)/C(=C\c2ccc(O)c(O)c2)SC1c1ccc(Cl)cc1 (centres undefined)
Ans. YES
